Data origin, for the record: the supplement of paper PMC4466140

Target: AgHse1
Experiment: SPOT peptide array binding signal intensity (averaged, normalized) (arbitrary units (background-subtracted, floor 0; scale differs between SH3 domains)); higher = stronger binding of the SH3 domain to the peptide
Endpoint label: SPOT peptide array binding signal intensity
Answer as a number with no unit attached.

Solved entries (count: 3):
>>> observed_value("DTIDNVKSKIQDKEG")
4
>>> observed_value("NIKVLLNPKLGKPVK")
760
>>> observed_value("LFMKGTPEFPKSGFS")
104

Now look at this one.
Ask | Quick one: SPOT peptide array binding signal intensity of VFQFQMPTTPISTKM ?
Reply | 428
